Tested on: 616215-338-R-J1-PDC spheroids with HUVEC/MSC, viability;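 note: spheroids exposed to agents for seven days before the viability read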
RUN_DESCRIPTION: Anticancer human tumor 616215-338-R-J1-PDC patient-derived colon adenocarcinoma cell line growth inhibition [PI3K]
PROTOCOL_CONDITIONS: compound 3.16 µM; active compounds read low
REPORTED_PROPERTY: viability, T/C

[[record]]
compound = "CNC(=O)c1ccc(N2C(=S)N(c3ccc(C#N)c(C(F)(F)F)c3)C(=O)C2(C)C)cc1F"
value = "101% [middle of 4 runs]"

[[record]]
compound = "CC(C)NCC(C(=O)N1CCN(c2ncnc3c2C(C)CC3O)CC1)c1ccc(Cl)cc1 (stereo not given)"
value = "77.5% [middle of 4 runs]"

[[record]]
compound = "C#Cc1c(F)ccc2cc(O)cc(-c3ncc4c(N5CC6CCC(C5)N6)nc(OCC56CCCN5CC(F)C6)nc4c3F)c12 (stereo not given)"
value = "95% [middle of 4 runs]"

[[record]]
compound = "Cc1nc(NC(=O)N2CCCC2C(N)=O)sc1-c1ccnc(C(C)(C)C(F)(F)F)c1 (stereo not given)"
value = "100% [middle of 8 runs]"

[[record]]
compound = "C=CC(=O)N1CCN(c2nc(=O)n(-c3c(C)ccnc3C(C)C)c3nc(-c4c(O)cccc4F)c(F)cc23)C(C)C1 (stereo not given)"
value = "93% [middle of 4 runs]"

[[record]]
compound = "CC1(C)CCC(CN2CCN(c3ccc(C(=O)NS(=O)(=O)c4ccc(NCC5CCOCC5)c([N+](=O)[O-])c4)c(Oc4cnc5[nH]ccc5c4)c3)CC2)=C(c2ccc(Cl)cc2)C1"
value = "77.8% [middle of 4 runs]"

[[record]]
compound = "Cn1nccc1Nc1nccc(-c2ccn(C(CO)c3ccc(Cl)c(F)c3)c(=O)c2)n1 (stereo not given)"
value = "56.4% [middle of 4 runs]"

[[record]]
compound = "C[C@@H](NC(=O)c1ncnc(N)c1Cl)c1ncc(C(=O)Nc2cc(C(F)(F)F)c(Cl)cn2)s1"
value = "109% [middle of 4 runs]"

[[record]]
compound = "CC(Nc1ncnc2nc[nH]c12)c1cc2cccc(Cl)c2c(=O)n1-c1ccccc1 (stereo not given)"
value = "102% [middle of 8 runs]"

[[record]]
compound = "CC1(C)CCC(Nc2ncc(C(F)(F)F)c(-c3c[nH]c4c(P(C)(C)=O)c(C#N)ccc34)n2)CN1 (stereo not given)"
value = "55.7% [middle of 4 runs]"

